Attribution: PubChem BioAssay

SSMD for assorted compounds
# protocol notes: modifiers of HSF1 nuclear foci, imaging, Selleck Cancer Library (AID 1347162)
# particulars: human cells, at 10 µM; measured here: HSF1 foci SSMD mean
Give the figure by itself; no unit, no explanation.

[
  {
    "compound": "CC(=O)O[C@@]12CO[C@@H]1C[C@H](O)[C@@]1(C)C(=O)[C@H](O)C3=C(C)[C@@H](OC(=O)[C@H](O)[C@@H](NC(=O)OC(C)(C)C)c4ccccc4)C[C@@](O)([C@@H](OC(=O)c4ccccc4)C12)C3(C)C (some centres not stated)",
    "quantitative result": 1.92
  }
]

Data request, read-out SSMD, for COc1ccc(CCN(C)CCCOc2ccc(S(=O)(=O)c3c(C(C)C)c4ccccc4n3C)cc2)cc1OC
-4.23

// SSMD lookup, key: C=CCc1cccc(/C=N/NC(=O)CN2CCN(Cc3ccccc3)CC2)c1O
3.11

What value of SSMD has been reported for the following compound? O=C(O)Cc1cccc(OCCCN(Cc2cccc(C(F)(F)F)c2Cl)CC(c2ccccc2)c2ccccc2)c1
0.414

Form field: reported SSMD of CC[C@]1(O)CC2CN(CCc3c([nH]c4ccccc34)[C@@](C(=O)OC)(c3cc4c(cc3OC)N(C=O)[C@H]3[C@@](O)(C(=O)OC)[C@H](OC(C)=O)[C@]5(CC)C=CCN6CC[C@]43[C@@H]65)C2)C1 (some centres not stated)
1.41

I am curious: what SSMD value has been reported for O=C(c1ccc(OCCN2CCCCC2)cc1)c1c(-c2ccc(O)cc2)sc2cc(O)ccc12 ?
2.22

# get_value(readout='SSMD', item= COc1cc([C@@H]2c3cc4c(cc3[C@@H](O[C@@H]3O[C@@H]5CO[C@@H](C)O[C@H]5[C@H](O)[C@H]3O)[C@H]3COC(=O)[C@H]23)OCO4)cc(OC)c1O )
-0.198

====

# protocol notes: growth inhibition of DIPG glioma cells, dose response, cell-based, SU-DIPG-IV, MIPE4.0, CellTiter-Glo, qHTS (AID 1347063);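 note: compound exposure lasted 48 hours before the viability readout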
# particulars: SU-DIPG-IV viability, CellTiter-Glo ATP luminescence
Results filed as inconclusive are left out. The source made the active and inactive calls. Cut-off not given; nearly all actives show AC50 up to about 30 µM.
// classify into T = active, F = inactive

A selection of reference data follows.
[
  {
    "molecule": "CCOC(=O)C(C)Oc1cccc2c(=O)n(CC(=O)Nc3ccc4c(c3)OCCO4)ccc12 (centres undefined)",
    "class": "F"
  },
  {
    "molecule": "CC(Cc1ccc(O)c(O)c1)(NN)C(=O)O (centres undefined)",
    "class": "F"
  },
  {
    "molecule": "COc1c(N2C[C@@H]3CCCN[C@@H]3C2)c(F)cc2c(=O)c(C(=O)O)cn(C3CC3)c12",
    "class": "F"
  }
]

What is the recorded call for this molecule in the test? O=c1ccn([C@@H]2O[C@H](CO)[C@@H](O)[C@H]2O)c(=O)[nH]1
F

====

# protocol notes: LFS_MB_2R medulloblastoma cell growth inhibition, synergistic combos for chromothripsis tumors, cisplatin combos (AID 1671457);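 note: cells exposed to compound for four days before readout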
# particulars: LFS_MB_2R medulloblastoma cells, measured here: combination with cisplatin, at 0.5 µM, stronger effect = higher value
readout kind: inhibition (%)
Report the value in % with no unit label.

Record request: inhibition value, item CCc1c2c(nc3ccc(O)cc13)-c1cc3c(c(=O)n1C2)COC(=O)[C@]3(O)CC
48.9

Field request: inhibition | item: Cc1c(-c2cnccn2)ssc1=S
-6.9

Form field: reported inhibition of NC(=O)c1ncn(C2OC(CO)C(O)C2O)n1 (stereo not drawn)
-4.76
